Tested on: CSNK2A2
Conditions: read-out: Rep 1; hek293t cells
measured.endpoint: IC50 (nM)
Output spec: scalar in nM, unitless text.

Challenge: Looking for the measured IC50 of COc1cc(Nc2ncc3c(C)nc(-c4cc5ccccc5[nH]4)n3n2)cc(OC)c1OC [GW869516X] , can you help?
Response given: 135

* * *

Test system: TP53RK
Set-up: species or system human, MV4-11 + K-562 + COLO205 + SK-N-BE2 + OVCAR-8
Conditions: read-out: apparent Kd; compound concentrations:100 nM and 1000 nM (sheet 'Samples'); n = 1
measured.endpoint: potency estimated from few doses (nM)
Output spec: scalar in nM, unitless text.

// below: answered compounds
Challenge: Checklist item: potency estimated from few doses tested on TP53RK, entry Nc1c(C(=O)c2ccccc2)cnn1-c1ccc(F)cc1 [RO1151246-000] , value?
Response given: 1850

Challenge: Repeat with Cc1ccccc1-c1cc(-c2c[nH]nc2-c2ccccn2)ccn1 [GW680061X]
Response given: 2160

Challenge: Repeat with Nc1nccc(-c2ccc3c(N)n[nH]c3c2)n1 [GSK1034945A]
Response given: 1540

Challenge: Repeat with C[C@@H](c1ccccc1)[C@@H](C(=O)Nc1ccc(I)cc1F)N1C(=O)N[C@H](c2ccc(OC[C@H](O)CO)cc2)C1=O [RO5068760-000]
Response given: 1620

Challenge: Repeat with COC(=O)Nc1nc2ccc(Oc3ccc(NC(=O)Nc4cc(C(F)(F)F)ccc4F)cc3)cc2n1C.Cl [GW692089A]
Response given: 1400

Challenge: Repeat with Nc1nc(-c2ccc3c(N)n[nH]c3c2)cc(N2CCCC(NC(=O)c3ccccc3)C2)n1 (centres unmarked) [GSK2286775B]
Response given: 2230

Challenge: Repeat with C=CC(=O)Nc1cc(-c2nn(C3CCC(N4CCN(C(C)=O)CC4)CC3)c3ncnc(N)c23)ccc1Oc1ccccc1 (centres unmarked) [TX-85-1]
Response given: 1620

Further cases:
Challenge: Checklist item: potency estimated from few doses tested on TP53RK, entry Cc1cc(O)cc(C)c1/C=C/c1cncc(C(N)=O)c1 [GW435821X_KCGS] , value?
Response given: 1440
